Source listed as patent US20230357323A1.

# target: T1, human IL-23R (hIL-23R), custom construct with C-terminal avi and his tags, biotinylated (human, UniProt Q5VWK5 24-355, limits assumed, enzymatically biotinylated via the avi-tag)
# T1 construct: immobilized on streptavidin tips in BLI, labeled target in FACS; also called human IL-23 receptor
# T1 sequence (looked up): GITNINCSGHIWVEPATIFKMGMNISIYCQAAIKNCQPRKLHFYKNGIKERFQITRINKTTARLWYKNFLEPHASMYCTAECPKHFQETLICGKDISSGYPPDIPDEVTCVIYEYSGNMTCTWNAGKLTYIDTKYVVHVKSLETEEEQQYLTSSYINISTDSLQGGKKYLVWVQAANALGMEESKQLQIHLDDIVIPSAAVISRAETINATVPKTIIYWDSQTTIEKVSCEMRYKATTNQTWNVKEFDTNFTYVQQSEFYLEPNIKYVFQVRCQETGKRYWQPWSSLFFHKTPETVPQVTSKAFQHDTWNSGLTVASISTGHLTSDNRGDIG
# test description: biolayer interferometry titration, biotinylated hIL-23R immobilised on streptavidin tips, 1:1 fit
experimental readout: Kd (nM)

P: A03 (designed binder) MEEEKYVRELVKKYYEGKLSQPEAVEEIRKYARKKGLEAWKLIWAFMQLVKRDI
Q: A05dslf01 (designed binder, E. coli, purified) MEEEKCVREQCKKYYEKKLSQPEAVEIIRKCARKKGLEAWKLIWAFMQCVKRDIHHHHHH
Query: Just tell me: smaller Kd value, P or Q ? Label of pick, please.
Reply: P
(P: 0.25 nM, Q: 0.46 nM)
